# Experimental target: Voltage-gated potassium channel subunit beta-2 (Rattus norvegicus)
# Measurement protocol: inhibitors of rat Kvbeta2 reductase activity – biochemical, NADPH fluorescence, primary screen (AID 622);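 note: slope of raw intensity against log time taken from 70 to 1610 s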
# Conditions used: recombinant KvBeta, 4-cyanobenzaldehyde reduction, at 10 µM, stronger effect = higher value
Quantity name: fluorescence slope
Answer using only a numeral; do not append any unit.

Just so you know, measured fluorescence slope for `O=C(NCc1ccco1)c1cccc(-c2nnc(-c3ccccc3)o2)c1` came out at -0.422

Recorded fluorescence slope (molecule `CCOC(=O)Cc1csc(NC(=O)CSc2nnc(C3CC3)n2C)n1` ): -0.265

For `CCOc1ccccc1Nc1nnc(SCC(=O)N2CCCC2)s1` the molecule record lists fluorescence slope as -0.609

Record COCCNC(=O)C(c1ccc(C)o1)N(C(=O)c1snc(C(N)=O)c1N)c1ccc(C)cc1 (stereo not given) . Reported fluorescence slope: -0.378

Recorded fluorescence slope (molecule `COCCn1c(=O)[nH]c2cc(C(=O)N3CCN(Cc4ccc5c(c4)OCO5)CC3)ccc2c1=O` ): -0.643

Sample CC1CN(c2c3c(nc4ncnn24)CCCC3)CC(C)O1 (stereo not given) ; fluorescence slope observed: -0.481

For record `CCOc1nc(-c2ccccc2O)nc2ccccc12` the listed fluorescence slope is -0.437

The molecule identified as `CCOC(=O)Cn1c(N2CCOCC2)nc2c1c(=O)[nH]c(=O)n2C` registered its fluorescence slope at -0.415

Item: COc1ccc(C2CC(c3ccc(C)cc3)Nc3ncnn32)cc1 (stereo not given) | fluorescence slope: -0.524

For this molecule ( `CC(=O)NCc1ccc(C(=O)CSc2nnc(-c3ccncc3)n2Cc2ccccc2)o1` ), measured fluorescence slope is -0.59

Reported fluorescence slope ( `COc1cc(NC(=O)CC(C)C)ccc1NC(=O)c1ccco1` ) = -0.605

The molecule listed as `C1=Nc2c(NCc3ccccc3)ncnc2Oc2ccccc21` has a reported fluorescence slope of -0.502

Reported fluorescence slope for `COC(=O)CCn1nnc(-c2ccc(C)cc2)n1` was -0.341

// fluorescence slope lookup, molecule = `CCOC(=O)c1c(NCc2ccc3c(c2)OCO3)c2ccccc2[nH]c1=O` , result: -0.252

Consider `Cc1ccc(S(=O)(=O)N(CC(=O)N2CCOCC2)CC(=O)N2CCOCC2)cc1` . Its measured fluorescence slope is -0.486

Value of fluorescence slope reported for the molecule `Cc1cccc(-n2c(Cc3cc(=O)[nH]c(=O)[nH]3)nnc2SCC(=O)NCc2ccco2)c1` is -0.529

What the record says about Cc1ccc2cc(C(c3nnnn3CC3CCCO3)N3CCc4ccccc4C3)c(=O)[nH]c2c1 (stereo not given) : fluorescence slope is -0.523

Kindly note the recorded fluorescence slope for Cc1ccc(S(=O)(=O)C(C#N)c2nc3ccccc3nc2OC(C)C)cc1 (stereo not given) , which is -0.38

Entry CCCC1CC(C)(C(=O)Cn2[nH]c(=O)ccc2=O)OC1=O (stereo not given) ; fluorescence slope = -0.515

Notebook: `CC(=O)Nc1ccc(S(=O)(=O)N2CCN(c3cc(C)nc4ccccc34)CC2)cc1` , fluorescence slope read as -0.31

For `CCCSc1nnc2nc3c(nn12)c1ccccc1n3C` the molecule record lists fluorescence slope as -0.519

fluorescence slope reported for this molecule CCOC(=O)c1ccc(N2C(=O)C3CC=CCC3C2=O)cc1 (stereo not given) : -0.545

Lab note: measured fluorescence slope of `CCn1c(C(=O)OC)cc2c1ccn2-c1ccc(F)cc1` was -0.61

// sample `COc1ccc(CN2C(=O)CN=C2Nc2ccc(C)cc2C)cc1` , its fluorescence slope was -0.555

fluorescence slope in this record for `COc1ccc(C(=O)Nc2ccc(S(=O)(=O)Nc3nccnc3OC)cc2)cc1OC` : -0.601

Lookup result for `COc1cc2c(cc1NC(=O)CSc1nnc(Cc3cccs3)n1C)oc1ccccc12` ; measured fluorescence slope: -0.45

fluorescence slope in this record for CC(C)C(c1nnnn1C1CCCC1)N1CCN(C(=O)c2ccco2)CC1 (stereo not given) : -0.566

Item: `COc1ccc(-c2nnn(CCc3nn[nH]n3)n2)cc1OC` | fluorescence slope: -0.561

Measured fluorescence slope of `CCN1CCN(CCCNC(=O)c2cc3sccc3n2CC)CC1` : -0.586

// field: fluorescence slope; key: `C=CCn1c(Cc2csc(N)n2)nnc1SCC(=O)OCC` ; value = -0.48

Data origin, for the record: PubChem BioAssay
